target-under-test: purified recombinant human p38 alpha MAPK (Homo sapiens, UniProt Q16539)
Construct: purchased Millipore, USA
Sequence (Q16539 whole entry): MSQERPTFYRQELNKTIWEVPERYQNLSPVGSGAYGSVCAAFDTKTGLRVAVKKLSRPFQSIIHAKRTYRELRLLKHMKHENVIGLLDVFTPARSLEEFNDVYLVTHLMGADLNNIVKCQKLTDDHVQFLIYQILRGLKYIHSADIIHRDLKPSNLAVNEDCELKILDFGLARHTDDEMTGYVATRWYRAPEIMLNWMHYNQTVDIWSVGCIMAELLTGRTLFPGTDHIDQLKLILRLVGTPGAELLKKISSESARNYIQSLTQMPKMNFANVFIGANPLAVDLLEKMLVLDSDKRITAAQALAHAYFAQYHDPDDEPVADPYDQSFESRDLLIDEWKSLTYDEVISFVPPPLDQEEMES
method-description: Inhibition of p38 alpha MAPK activity: TR-FRET kinase assay
Type: biochemical
run-conditions: Concentration 1 μM; read-out: P38α Inhibition
List of inhibition at 1 µM values.

>  <compound>
Cc1ccc(-n2nc(C(C)(C)C)cc2NC(=O)Nc2ccc(Oc3ccc4c(c3)sc3nc(C(=O)NCCO)cn34)cc2)cc1 [Compound 4]

>  <experimental-endpoint>
inhibition at 1 µM

>  <reported-result>
80 to 100%

$$$$
>  <compound>
CC(C)(C)c1cc(NC(=O)NCc2ccccc2Oc2ccc3c(c2)sc2ncc(C(=O)NCCO)n23)n(-c2ccc(O)cc2)n1 [Compound 14]

>  <experimental-endpoint>
inhibition at 1 µM

>  <reported-result>
80 to 100%

$$$$

Proceeding to the next compound to report its inhibition at 1 µM.
So what does the record say about inhibition at 1 µM for CC(C)(C)c1cc(NC(=O)NCc2ccccc2Oc2ccc3c(c2)sc2ncc(CSCCO)n23)n(-c2ccc(O)c(Cl)c2)n1 [Compound 23] ?
80 to 100%
